Assayed system: EGFR T790M/L858R (Homo sapiens, UniProt P00533, L858R/T790M)
Sequence (P00533 25-1210 T790M/L858R): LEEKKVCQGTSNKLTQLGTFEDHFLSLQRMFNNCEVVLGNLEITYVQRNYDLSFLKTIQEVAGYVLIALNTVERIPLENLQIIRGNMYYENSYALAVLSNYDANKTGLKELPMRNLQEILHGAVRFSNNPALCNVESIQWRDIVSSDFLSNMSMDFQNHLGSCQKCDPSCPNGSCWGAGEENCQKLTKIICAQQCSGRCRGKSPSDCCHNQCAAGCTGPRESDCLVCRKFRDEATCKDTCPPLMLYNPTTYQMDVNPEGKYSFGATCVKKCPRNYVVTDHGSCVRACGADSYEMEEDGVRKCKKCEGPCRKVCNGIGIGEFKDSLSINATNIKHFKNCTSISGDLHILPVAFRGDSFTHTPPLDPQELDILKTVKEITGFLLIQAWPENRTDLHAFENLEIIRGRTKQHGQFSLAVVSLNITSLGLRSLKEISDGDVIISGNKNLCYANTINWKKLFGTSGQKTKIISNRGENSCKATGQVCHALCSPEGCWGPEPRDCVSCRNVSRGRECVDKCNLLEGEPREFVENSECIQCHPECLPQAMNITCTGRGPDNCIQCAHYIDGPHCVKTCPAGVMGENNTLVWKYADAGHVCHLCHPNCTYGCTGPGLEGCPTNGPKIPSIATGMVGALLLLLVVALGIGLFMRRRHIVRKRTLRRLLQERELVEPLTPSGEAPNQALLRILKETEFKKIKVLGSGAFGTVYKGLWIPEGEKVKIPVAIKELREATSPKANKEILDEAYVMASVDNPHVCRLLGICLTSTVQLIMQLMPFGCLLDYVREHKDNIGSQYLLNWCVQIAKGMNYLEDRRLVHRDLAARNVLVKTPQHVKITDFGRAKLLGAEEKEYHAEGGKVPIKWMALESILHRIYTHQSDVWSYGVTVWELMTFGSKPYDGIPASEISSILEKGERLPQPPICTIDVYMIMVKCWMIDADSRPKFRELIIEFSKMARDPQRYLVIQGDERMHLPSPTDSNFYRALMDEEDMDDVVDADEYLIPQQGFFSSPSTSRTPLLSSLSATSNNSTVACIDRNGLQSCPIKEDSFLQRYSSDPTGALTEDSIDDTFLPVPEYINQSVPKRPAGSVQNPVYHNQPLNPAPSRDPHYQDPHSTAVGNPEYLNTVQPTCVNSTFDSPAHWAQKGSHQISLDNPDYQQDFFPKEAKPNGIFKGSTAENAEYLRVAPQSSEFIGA
Measurement protocol: EGFR T790M/L858R enzyme HTRF inhibition assay
Condition notes: 20 μM ATP, read-out: EGFR L858R/T79M IC50
Readout name: IC50 (nM)

Smiles entry: C=CC(=O)Nc1cc(Nc2ncc(F)c(-c3c4n(c5c(OC)cccc35)CCOC4)n2)c(OC)cc1N(C)CCN(C)C
Assayed system: EGFR T790M/L858R (Homo sapiens, UniProt P00533, L858R/T790M)
Units symbol: nM
Meas value: 1.2
--
Smiles entry: C=CC(=O)Nc1cc(Nc2nccc(-c3c4n(c5ccccc35)CCOC4)n2)c(OC(C)C)cc1N(C)CCN(C)C
Assayed system: EGFR T790M/L858R (Homo sapiens, UniProt P00533, L858R/T790M)
Units symbol: nM
Meas value: 0.38
--
Smiles entry: C=CC(=O)Nc1cc(Nc2ncc(F)c(-c3c4n(c5cc(F)ccc35)CCOC4)n2)c(OC)cc1N(C)CCN(C)C
Assayed system: EGFR T790M/L858R (Homo sapiens, UniProt P00533, L858R/T790M)
Units symbol: nM
Meas value: 0.5
--
Smiles entry: C=CC(=O)Nc1cc(Nc2nccc(-c3c4n(c5ccccc35)CCOC4)n2)c(OC)cc1N(CC)CCN(C)C
Assayed system: EGFR T790M/L858R (Homo sapiens, UniProt P00533, L858R/T790M)
Units symbol: nM
Meas value: 0.3
--
Smiles entry: C=CC(=O)Nc1cc(Nc2nccc(-c3c4n(c5ccccc35)CCCC4)n2)c(OC)cc1N(C)CCN(C)C
Assayed system: EGFR T790M/L858R (Homo sapiens, UniProt P00533, L858R/T790M)
Units symbol: nM
Meas value: 0.36
--
Smiles entry: C=CC(=O)Nc1cc(Nc2nccc(-c3cn4c5c(cccc35)OCCC4)n2)c(OC)cc1N(C)CCN(C)C
Assayed system: EGFR T790M/L858R (Homo sapiens, UniProt P00533, L858R/T790M)
Units symbol: nM
Meas value: 0.3
--
Smiles entry: C=CC(=O)Nc1cc(Nc2nccc(-c3c4n(c5ccccc35)CCC4)n2)c(OC)cc1N(C)CCN1CCCC1
Assayed system: EGFR T790M/L858R (Homo sapiens, UniProt P00533, L858R/T790M)
Units symbol: nM
Meas value: 0.93
